Every entry's value here was drawn from ChEMBL document CHEMBL5532727.

# experimental-protocol: Inhibition of IL-6 production in MALT-1 dependent human OCILY3 cells incubated for 48 hrs by AlphaLISA immunoassay
# Assay type: functional, cell-based
# experimental-parameters: OCI-Ly3, 48 h
pEC50: −log10 of the molar value.
assay-endpoint: pEC50

CO[C@@H](C)c1c(Nc2ccc([C@H](N(C)C(=O)C3CCS(=O)(=O)CC3)C(F)(F)F)cc2)cnc2sc(C)nc12 | 6.70
CO[C@H](C)c1c(Nc2ccc([C@H](N(C)C(=O)C3CCS(=O)(=O)CC3)C(F)(F)F)cc2)cnc2sc(C)nc12 | 7.15

(I) CO[C@H](c1c(Nc2ccc([C@H](N(C)C(=O)C3CCS(=O)(=O)CC3)C(F)(F)F)cc2)cnc2sc(C)nc12)C(F)F
(II) CO[C@@H](C)c1c(Nc2ccc([C@H](N(C)C(=O)C3CCN(C(=O)CCO)CC3)C(F)(F)F)cc2)cnc2sc(C)nc12
(III) CO[C@H](c1c(Nc2ccc([C@H](N(C)C(=O)C3CCN(C(C)=O)CC3)C(F)(F)F)cc2)cnc2sc(C)nc12)C(F)F
(IV) Cc1nc2c([C@H](C)C(F)(F)F)c(Nc3ccc([C@H](N(C)C(=O)C4CCS(=O)(=O)CC4)C(F)(F)F)cc3)cnc2s1 (single isomer, unassigned)
Asked: Put the items in order so that reported pEC50 rises from first to last. Field: ranking. Enter the labels in the order requested.
Given back: III, II, I, IV
(III: 5.94, II: 6.42, I: 6.85, IV: 7.40)

(a) CO[C@H](c1c(Nc2ccc([C@@H](C(F)F)N(C)C(=O)C3CCN(C(=O)CO)CC3)cc2)cnc2sc(C)nc12)C(F)F
(b) CO[C@H](C)c1c(Nc2ccc([C@@H](C(F)F)N(C)C(=O)C3CCS(=O)(=O)CC3)cc2)cnc2sc(C)nc12
Asked: Select the item with the higher value of pEC50 from the options a and b listed. Give the label under which the chosen entry appears.
Given back: b
(b: 6.70, a: 6.36)

====

# experimental-protocol: Inhibition of IL-6 production in MALT-1 dependent human OCILY3 cells incubated for 48 hrs by AlphaLISA immunoassay
# Assay type: functional, cell-based
# experimental-parameters: OCI-Ly3, 48 h
assay-endpoint: EC50 (nM)

CO[C@@H](C)c1c(Nc2ccc([C@H](N(C)C(=O)C3CCN(C(=O)[C@H](O)CO)CC3)C(F)(F)F)cc2)cnc2sc(C)nc12 | 410
CO[C@H](c1c(Nc2ccc([C@@H](C(F)F)N(C)C(=O)C3CCN(C(=O)CO)CC3)cc2)cnc2sc(C)nc12)C(F)(F)F | 270
CO[C@@H](C)c1c(Nc2ccc([C@H](N(C)C(=O)C3CCS(=O)(=O)CC3)C(F)(F)F)cc2)cnc2sc(C(F)F)nc12 | 300
CO[C@@H](c1c(Nc2ccc([C@H](N(C)C(=O)C3CCS(=O)(=O)CC3)C(F)(F)F)cc2)cnc2sc(C)nc12)C(F)F | 340
